Would you kindly list collision cross section for each of these sequences?
- Measurement Description: collision cross section of modified peptide (TIMS, N2, iRT-aligned); higher = larger / more extended gas-phase ion
- Particulars: charge state: 2; modification: Malonyl
Just the number please, in Å², no unit attached.

Find the recorded collision cross section belonging to IVSGKDYNVTANSK [_IVSGK(Malonyl)DYNVTANSK_] and report it. 407.96

Now the same for DFDTALKHYDK [_DFDTALK(Malonyl)HYDK_] 405.79

Now the sequence LTEKELAEAASK [_LTEK(Malonyl)ELAEAASK_] 390.08

Try SLFFGGKGAPLQR [_SLFFGGK(Malonyl)GAPLQR_] next. 399.96

----------
- Measurement Description: collision cross section of unmodified peptide (TIMS, N2, iRT-aligned); higher = larger / more extended gas-phase ion
- Particulars: charge state: 3
Could you label it Yes if measured collision cross section is 500 Å² or higher, and No otherwise?

Is the recorded value of collision cross section equal to or greater than 500 Å² for this substance? "VQGGALEDSQLVAGVAFKK" Yes

Let us now turn to "SGGGYGGDRSSGGGYSGDR" No

Next substance up: "SGGRGVSVSSAR" No

Same lookup for "GSLEKGSPEDK" , please. No

Let us now turn to "TTGFYSGFSEVAEKR" Yes

Cool, now "VFIGNLNTLVVKK" No

What about "GPPGPPGRPGNSGIR" ? No

Now consider "DHLSDKESK" and answer again. No

Try the substance "LGHYATQLQK" No

Likewise for "LDEKENLSAK" ? No

Item: "PSVGSQSNQAGQGKR" No

// next record "AYPLADAHLTK" No

Further, for "HELQANCYEEVKDR" ? Yes

// next record "PGGEGPQCEKTTDVK" No

Note, next up: "ILDLKTGTVK" No

// repeat for "LGPPGNPGPSGSPGPKGQK" and report No

Now give it for "SKHLQEQLNELK" too. No

Check "GRGLPGPAESLR" too. No

Param item: "LLRGVGGSHGR" No

What about "LLEEEDSKLK" ? No

// same read-out, input: "SGATAGAAGGRGK" No

Could you do the same for "HGGSGGRGVSVSSAR" , please? No

Cool, now "GVPRGVHLGSQGLQR" No

Queued: "LFVGGIKEDTEEHHLR" Yes

Likewise for "PRGVISTPVIR" ? No

Subsequent entry: "YSRGAGLGFSTAPNK" No

Also, "SLFFGGKGAPLQR" please. No

Likewise for "AYGELPEHAK" ? No

Same lookup for "ALLQAKASGK" , please. No

Now the same for "GFGRGGAESHTFK" No

Note, next up: "LQLGTPPPLLAARLVPPR" Yes

Can you check "GEVGAGAGPGAQAGPSAKR" next? No

// next record "IGNSYFKEEK" No

What about "DVNAAIAAIKTK" ? No

Also "LGPPGNPGPSGSPGPK" ? No

Now this one: "INNFSADIKDSK" No

// same read-out, input: "GEKGLPGLAGDHGEFGEK" Yes

And then "VNVEAPDVNLEGLGGKLK" , what is it? Yes

Subsequent entry: "YIGTGHADTTK" No

Now the same for "VVPGYGHAVLR" No

Next: "VGEFSGANKEK" No

And what about the substance "DSRGGGGNFGPGPGSNFR" ? No

And for "LVLPSQAQARLPSGEVVK" ? Yes

Query "YRGDYDR" next No

What do you get for "AEGYEVAHGGR" ? No

Further, for "IVEKYGYTHLSAGELLR" ? Yes

And what about the substance "TGPPGSTGSRGPPGPPGR" ? No

Entry to check: "SSDLTDRVK" No

What about "VGYPGPSGPLGAR" ? No

Moving on to "VTPHPSPRGSPLPTPK" Yes

Queued: "YVHADAPTNK" No

And for "DYGNSPLHR" ? No

What about "IYHPNVDK" ? No

Record: "TLQKQSVVYGGK" No

----------
- Measurement Description: collision cross section of modified peptide (TIMS, N2, iRT-aligned); higher = larger / more extended gas-phase ion
- Particulars: charge state: 3; modification: Methyl (K)
Label -1 if collision cross section falls below 500 Å²; label 1 in every other case.

Entry VGIDTPDIDIHGPEGKLK [_VGIDTPDIDIHGPEGK(Methyl (K))LK_] : is its collision cross section no less than 500 Å²? 1

VGVEVPDVNIEGPEGKLK [_VGVEVPDVNIEGPEGK(Methyl (K))LK_] , same question. 1

Moving on to the next sequence: LGVATVAKGVCGACK [_LGVATVAK(Methyl (K))GVCGACK_] -1

Repeat for the following sequence: DHLSDKESK [_DHLSDK(Methyl (K))ESK_] -1

Can you check TLDEILQEKK [_TLDEILQEK(Methyl (K))K_] next? -1

PSVSTKLISK [_PSVSTK(Methyl (K))LISK_] , same question. -1

Lookup IDLPAENSNSETIIITGKR [_IDLPAENSNSETIIITGK(Methyl (K))R_] 1

Also FGTINIVHPKLGSYTK [_FGTINIVHPK(Methyl (K))LGSYTK_] ? 1

Queued: SLEEEGAAHSGKR [_SLEEEGAAHSGK(Methyl (K))R_] -1

Can you check IPQEKCILQTDVK [_IPQEK(Methyl (K))CILQTDVK_] next? -1

Can you handle DAEAAEATAEGALKAEK [_DAEAAEATAEGALK(Methyl (K))AEK_] next? 1

Check DVNAAIAAIKTK [_DVNAAIAAIK(Methyl (K))TK_] too. -1

Repeat with LEQVEKELLR [_LEQVEK(Methyl (K))ELLR_] -1

// repeat for TQAYQDQKPGTSGLR [_TQAYQDQK(Methyl (K))PGTSGLR_] and report -1

Note, next up: HELQANCYEEVKDR [_HELQANCYEEVK(Methyl (K))DR_] 1

What do you get for AGPNASIISLKSDK [_AGPNASIISLK(Methyl (K))SDK_] ? -1

Would you mind doing PASGAGAGAGAGKR [_PASGAGAGAGAGK(Methyl (K))R_] as well? -1

Would you mind doing VLTANSNPSSPSAAKR [_VLTANSNPSSPSAAK(Methyl (K))R_] as well? 1

Also check SSFAYKDQNENR [_SSFAYK(Methyl (K))DQNENR_] -1

Would you mind doing LLEQKTQESQK [_LLEQK(Methyl (K))TQESQK_] as well? -1

SPPLPEHQKIPCNSAEPK [_SPPLPEHQK(Methyl (K))IPCNSAEPK_] , same question. 1

Next record, please: DFDTALKHYDK [_DFDTALK(Methyl (K))HYDK_] -1

Entry ALASIDSKLNQAK [_ALASIDSK(Methyl (K))LNQAK_] please -1

----------
Task for the reader: assign each of the following sequences its reported collision cross section.
- Measurement Description: collision cross section of modified peptide (TIMS, N2, iRT-aligned); higher = larger / more extended gas-phase ion
- Particulars: charge state: 2; modification: Succinyl
± gives the standard deviation.
Please answer using a numeric value trailed by its unit.

Which collision cross section is reported for this sequence? FDDTNPEKEEAK [_FDDTNPEK(Succinyl)EEAK_] 397.2 ± 0.56 Å²

Thanks! And DLGKFQVATDALK [_DLGK(Succinyl)FQVATDALK_] ? 409.86 ± 0.37 Å²

Try DTGEKLTVAENEAETK [_DTGEK(Succinyl)LTVAENEAETK_] next. 445.72 ± 1.1 Å²

Moving on to the next sequence: VDIDAPDVSIEGPDAKLK [_VDIDAPDVSIEGPDAK(Succinyl)LK_] 469.67 ± 0.79 Å²

----------
- Measurement Description: collision cross section of modified peptide (TIMS, N2, iRT-aligned); higher = larger / more extended gas-phase ion
- Particulars: charge state: 3; modification: Crotonyl
Assay Metric: collision cross section (Å²)
Give the quantity in Å², number only.

Consider the sequence ATVASSTQKFQDLGVK [_ATVASSTQK(Crotonyl)FQDLGVK_] and give its measured collision cross section. 494.25

Item: ITLSKHQNVQLPR [_ITLSK(Crotonyl)HQNVQLPR_] 519.02

Entry GTVPDDAVEALADSLGKK [_GTVPDDAVEALADSLGK(Crotonyl)K_] please 536.14

Here is the next sequence: TQDQISNIKYHEEFEK [_TQDQISNIK(Crotonyl)YHEEFEK_] 560.13

Next entry: GFALVGVGSEASSKK [_GFALVGVGSEASSK(Crotonyl)K_] 499.08

What do we get for GETASKLQSEISR [_GETASK(Crotonyl)LQSEISR_] ? 466.94

Next sequence: VPTTEKPTVTVNFR [_VPTTEK(Crotonyl)PTVTVNFR_] 510.39

// repeat for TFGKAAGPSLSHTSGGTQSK [_TFGK(Crotonyl)AAGPSLSHTSGGTQSK_] and report 515.47

Follow-up item: DSINFLDHINGKK [_DSINFLDHINGK(Crotonyl)K_] 467.81

Entry SGNLTEDDKHNNAK [_SGNLTEDDK(Crotonyl)HNNAK_] please 469.87

What do we get for SITHSTVGSKGEK [_SITHSTVGSK(Crotonyl)GEK_] ? 442.34

Query VGLQVVAVKAPGFGDNR [_VGLQVVAVK(Crotonyl)APGFGDNR_] next 499.08

Moving on to IVFSGNLFQHQEDSKK [_IVFSGNLFQHQEDSK(Crotonyl)K_] 539.53

Also need DESFLGKLGGTLAR [_DESFLGK(Crotonyl)LGGTLAR_] , thanks. 492.01

Same question, GTISAPGKVVTAAAQAK [_GTISAPGK(Crotonyl)VVTAAAQAK_] this time 518.96

Quick one: VSPASSVDSNIPSSQGYKK [_VSPASSVDSNIPSSQGYK(Crotonyl)K_] 560.75
